Target: Pro-neuregulin-1, membrane-bound isoform (Homo sapiens) (UniProt Q02297)
Sequence (Q02297 whole entry, looked up, canonical isoform): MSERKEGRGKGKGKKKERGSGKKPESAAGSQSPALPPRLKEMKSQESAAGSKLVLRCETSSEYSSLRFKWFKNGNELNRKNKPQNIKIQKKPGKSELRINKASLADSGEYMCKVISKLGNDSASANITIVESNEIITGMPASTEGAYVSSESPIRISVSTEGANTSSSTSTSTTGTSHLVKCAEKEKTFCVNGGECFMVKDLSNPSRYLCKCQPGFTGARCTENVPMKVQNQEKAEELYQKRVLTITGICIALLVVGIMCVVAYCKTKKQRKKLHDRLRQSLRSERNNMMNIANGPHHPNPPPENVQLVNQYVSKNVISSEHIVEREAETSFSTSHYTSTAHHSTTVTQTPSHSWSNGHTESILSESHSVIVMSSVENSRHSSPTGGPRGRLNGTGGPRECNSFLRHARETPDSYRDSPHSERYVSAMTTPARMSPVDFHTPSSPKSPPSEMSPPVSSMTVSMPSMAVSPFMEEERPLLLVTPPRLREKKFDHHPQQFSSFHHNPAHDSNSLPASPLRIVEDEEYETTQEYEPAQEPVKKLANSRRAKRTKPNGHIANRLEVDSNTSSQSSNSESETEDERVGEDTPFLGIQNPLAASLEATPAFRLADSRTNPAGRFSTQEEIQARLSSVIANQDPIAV
Test: small molecules binding neuregulin-1 protein – biochemical, small-molecule microarray, fluorescence 635/667, psychiatric disease protein project, primary screen (AID 1075);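 note: score combines 667 nm spot fluorescence with signal to noise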
Conditions: NRG1 binding, 635 nm fluorescence, higher = more signal
measuredAttribute: composite z-score
Form: value (number only, do not type unit).

Use the examples below as a reference point.
compound: COCCOC(=O)N1C(=O)[C@@]2(c3cc(C#CC4(O)CCCCCC4)ccc31)[C@H](C(=O)N1CCc3cc(OC)c(OC)cc3C1)[C@H]1C(=O)O[C@H](c3ccccc3)[C@H](c3ccccc3)N1[C@@H]2c1ccc(OCCO)cc1
measuredAttribute: composite z-score
testValue: 0.675
--
compound: NC(=O)NCC#Cc1ccc2c(c1)[C@]1(C(=O)N2)[C@H](c2ccccc2OCCO)N2[C@H](c3ccccc3)[C@H](c3ccccc3)OC(=O)[C@H]2[C@@H]1C(=O)NC[C@H](O)c1ccccc1
measuredAttribute: composite z-score
testValue: 0.319
--
compound: CN(C)C(=O)[C@]1(CCC(=O)OC(C)(C)C)N=C(c2ccc(OCCCO)cc2)O[C@@H]1c1ccccc1CN=[N+]=[N-]
measuredAttribute: composite z-score
testValue: 1.89

Provide only the value of recorded composite z-score for "COc1ccc(C#Cc2ccc3c(c2)[C@]2(C(=O)N3)[C@H](c3ccc(O)cc3)N3[C@H](c4ccccc4)[C@H](c4ccccc4)OC(=O)[C@H]3[C@@H]2C(=O)Nc2nc3ccccc3s2)cc1"
1.69

Provide only the value of recorded composite z-score for CC(=O)N1CC2(CC2)CC1c1ccccc1 (centres undefined)
0.163

Provide only the value of recorded composite z-score for CCCCN1CC=CC23O[C@@H]4/C=C\CCCOC(=O)C4[C@H]2C(=O)N(CCO)[C@@H]3C1=O (some centres undefined)
0.441

Provide only the value of recorded composite z-score for Cc1ccc(NN2C(C(O)c3c(F)cccc3Cl)C=CC3C(=O)N(C4CCCCC4)C(=O)C32)cc1 (centres undefined)
1.46

Provide only the value of recorded composite z-score for "C=CCNC(=O)[C@@H]1[C@H]2C(=O)O[C@H](c3ccccc3)[C@H](c3ccccc3)N2[C@H](c2ccc(OCCO)cc2)[C@@]12C(=O)N(C(=O)OCCOC)c1ccc(C#Cc3ccc(OC)cc3)cc12"
1.1

Provide only the value of recorded composite z-score for O=C1OCCC/C=C\[C@H]2OC34C=CCN(c5ccc6ccccc6c5)C(=O)[C@H]3N(CCO)C(=O)[C@@H]4C12 (some centres undefined)
1.6

Provide only the value of recorded composite z-score for COc1cc(OC)c(C(O)C2C=CC3C(=O)N(Cc4ccccc4)C(=O)C3N2n2cnnc2)cc1Br (centres undefined)
1.32

Provide only the value of recorded composite z-score for "NC(=O)[C@@]1(Cc2ccccc2)COC(c2ccc(OCCCO)cc2)=N1"
1.37

Provide only the value of recorded composite z-score for "CCOC(=O)C[C@H]1[C@H](OC(=O)c2ccc(C(=O)c3ccccc3)cc2)[C@@H](NC(=O)c2ccc3ccccc3n2)c2cc(OCCCO)ccc2N1C(=O)Cc1ccc(OC)cc1"
0.252

Provide only the value of recorded composite z-score for "[N-]=[N+]=Nc1ccccc1[C@H]1OC(c2ccc(OCCCO)cc2)=N[C@@]1(Cc1ccccc1)C(=O)NCCN1CCOCC1"
1.96

Provide only the value of recorded composite z-score for "C=C(/C(=C/C[C@H](OC(=O)c1ccncc1)c1ccc(CO)o1)c1cnc2ccccc2c1)C(C)C"
0.519
